biological target: Adenosine receptor A2a (Homo sapiens); test: Agonist activity at human recombinant adenosine A2A receptor transfected in CHO cells assessed as induction of adenylyl cyclase activity
Sequence (P29274 whole entry): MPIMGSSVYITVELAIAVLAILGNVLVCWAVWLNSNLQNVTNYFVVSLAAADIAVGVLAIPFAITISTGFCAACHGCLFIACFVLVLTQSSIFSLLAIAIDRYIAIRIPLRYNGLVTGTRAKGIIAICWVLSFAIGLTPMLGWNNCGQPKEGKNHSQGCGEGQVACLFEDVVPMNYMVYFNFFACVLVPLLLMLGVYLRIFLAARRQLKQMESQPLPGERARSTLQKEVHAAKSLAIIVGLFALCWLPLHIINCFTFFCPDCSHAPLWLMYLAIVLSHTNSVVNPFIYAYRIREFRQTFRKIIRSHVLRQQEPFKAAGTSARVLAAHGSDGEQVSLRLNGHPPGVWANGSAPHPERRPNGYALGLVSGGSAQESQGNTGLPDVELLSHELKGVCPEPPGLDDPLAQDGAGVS
For each of the compounds below, state its pEC50.
Numbers only, as −log10 of the molar value.

Previously resolved entries follow.
COMPOUND	pEC50
CCn1nnc([C@H]2O[C@@H](n3cnc4c(NC5CC5)nc(Cl)nc43)[C@H](O)[C@@H]2O)n1	8.27
CCn1nnc([C@H]2O[C@@H](n3cnc4c(NC5CCCO5)nc(Cl)nc43)[C@H](O)[C@@H]2O)n1 (stereo partly drawn)	7.48
CCn1nnc([C@H]2O[C@@H](n3cnc4c(NC5CCCO5)ncnc43)[C@H](O)[C@@H]2O)n1 (stereo partly drawn)	7.60

Would you mind giving pEC50 for every compound in the list below?
1. CCn1nnc([C@H]2O[C@@H](n3cnc4c(NCc5ccccc5I)nc(Cl)nc43)[C@H](O)[C@@H]2O)n1
2. CCn1nnc([C@H]2O[C@@H](n3cnc4c(N[C@H]5C[C@@H]6CC[C@@H]5C6)nc(Cl)nc43)[C@H](O)[C@@H]2O)n1 (racemic)
3. CCn1nnc([C@H]2O[C@@H](n3cnc4c(NC)ncnc43)[C@H](O)[C@@H]2O)n1
4. CCn1nnc([C@H]2O[C@@H](n3cnc4c(N[C@H]5C[C@@H]6CC[C@@H]5C6)ncnc43)[C@H](O)[C@@H]2O)n1 (racemic)

1. 8.04
2. 7.89
3. 5.77
4. 8.11

Would you mind giving pEC50 for every compound in the list below?
1. CCn1nnc([C@H]2O[C@@H](n3cnc4c(Nc5ccc(Cl)cc5F)ncnc43)[C@H](O)[C@@H]2O)n1
2. CCn1nnc([C@H]2O[C@@H](n3cnc4c(NC5CC5)ncnc43)[C@H](O)[C@@H]2O)n1

1: 8.08; 2: 8.01

Would you mind giving pEC50 for every compound in the list below?
1. CCn1nnc([C@H]2O[C@@H](n3cnc4c(N)nc(Cl)nc43)[C@H](O)[C@@H]2O)n1
2. CCn1nnc([C@H]2O[C@@H](n3cnc4c(NC)nc(Cl)nc43)[C@H](O)[C@@H]2O)n1

8.42
6.62

Would you mind giving pEC50 for every compound in the list below?
1. CCn1nnc([C@H]2O[C@@H](n3cnc4c(N)ncnc43)[C@H](O)[C@@H]2O)n1
2. CCn1nnc([C@H]2O[C@@H](n3cnc4c(Nc5ccc(Cl)cc5F)nc(Cl)nc43)[C@H](O)[C@@H]2O)n1

1. 8.63
2. 7.54
